Ref: patent US12723255B2

Measured Melting temp, Buffer plus Fe2+ and aKG by item
Assay type: physicochemical
Conditions: Table 11 series
Note: a bare number is incomplete; add the unit.

Examples with their reported Melting temp, Buffer plus Fe2+ and aKG follow.
Incoming: Fill in the blank: the reported Melting temp, Buffer plus Fe2+ and aKG of MON-HT1: engineered oxygenase protein, amino acid sequence SEQ ID NO:14 (protein) MHAALTPLTNKYRFIDVQPLTGVLGAEITGVDLREPLDDSTWNEILDAFHTYQVIYFPGQAITNEQHIAFSRRFGPVDPVPILKSIEGYPEVQMIRREANESSRFIGDDWHTDSTFLDAPPAAVVMRAIEVPEYGGDTGFLSMYSAWETLSPTMQATIEGLNVVHSATKVFGSLYQATNWRFSNTSVKVMDVDAGDRETVHPLVVTHPVTGRRALYCNQVYCQKIQGMTDAESKSLLQFLYEHATKFDFTCRVRWKKDQVLVWDNLCTMHRAVPDYAGKFRYLTRTTVAGDKPSR is ____.
Outgoing: 62 °C

Incoming: Fill in the blank: the reported Melting temp, Buffer plus Fe2+ and aKG of MON-HT15: engineered oxygenase protein, amino acid sequence SEQ ID NO:49 (protein) MHAALTPLTNKYRHIDVQPLTGVLGAEITGVDLREPLDDSTWNEILDAFHTYQVIYFPGQAITNEQHIAFSRRFGPVDPVPILKSIEGYPEVQMIRREANESSRYIGDDWHADSTFLDAPPAAVVMRAIEVPEYGGDTGFLSMYSAWETLSPAMQATIEGLNVVHSATKVFGSLYQATNWRFSNTSVKVMDVDAGDRETVHPLVVTHPVTGRRALYCNQIYCQKIQGMTDAESKSLLQFLYEHATQFDFTCRVRWKKDQVLVWDNLCTMHRAVPDYAGKFRYLTRTTVAGDKPSR is ____.
Outgoing: 60 °C

Let us examine a further case.
Incoming: Fill in the blank: the reported Melting temp, Buffer plus Fe2+ and aKG of MON-HT13: engineered oxygenase protein, amino acid sequence SEQ ID NO:47 (protein) MHAALTPLTNKYRFIDVQPLTGVLGAEITGVDLREPLDDSTWNEILDAFHTYQVIYFPGQAITNEQHIAFSRRFGPVDPVPILKSIEGYPEVQMIRREANESSRYIGDDWHADSTFLDAPPAAVVMRAIEVPEYGGDTGFLSMYSAWETLSPTMQATIEGLNVVHSATKVFGSLYQATNWRFSGTSVKVMDVDAGDRETVHPLVVTHPVTGRRALYCNQVYCQKIQGMTDAESKSLLQFLYEHATQFDFTCRVRWKKDQVLVWDNLCTMHRAVPDYAGKFRYLTRTTVAGDKPSR is ____.
Outgoing: 62 °C
